Tested on: APAE001 (ATCC27853)
Test: MIC broth microdilution, APAE001
Type: cell-based, P. aeruginosa
Conditions: Pseudomonas aeruginosa, ATCC27853, read-out: MIC APAE001, APAE001 is ATCC27853
quantity.name: MIC

- compound: "CC(O)[C@H](NS(=O)(=O)c1ccc(C#Cc2ccc(CN3CCOCC3)cc2)cc1)C(=O)NO (stereo partly shown)"
  system.name: "APAE001 (ATCC27853)"
  readout.value: "> 64 µg/mL"
- compound: "C[C@@H](N)[C@H](NC(=O)c1ccc(/C=C/C#Cc2cccnc2)cc1)C(=O)NO"
  system.name: "APAE001 (ATCC27853)"
  readout.value: "< 2 µg/mL"
- compound: "O=C(N[C@H](C(=O)NO)C1CCS(=O)(=O)CC1)c1ccc(/C=C/C#Cc2ccc(CN3CCOCC3)cc2)cc1"
  system.name: "APAE001 (ATCC27853)"
  readout.value: "2 to 16 µg/mL"
- compound: "CC(C)[C@H](NC(=O)c1ccc(/C=C/C#Cc2ccc(CN3CCOCC3)cc2)cc1)C(=O)NO"
  system.name: "APAE001 (ATCC27853)"
  readout.value: "2 to 16 µg/mL"
- compound: "C[C@H](NCC(=O)NC[C@H](NC(=O)c1ccc(C#Cc2ccccc2)cc1)C(=O)NO)c1ccccc1"
  system.name: "APAE001 (ATCC27853)"
  readout.value: "2 to 16 µg/mL"
- compound: "C[C@@H](N)[C@H](NC(=O)c1ccc(C#C/C=C/c2ccc(CO)cc2)cc1)C(=O)NO"
  system.name: "APAE001 (ATCC27853)"
  readout.value: "< 2 µg/mL"
- compound: "O=C(NC(C(=O)NO)C1CCNC1)c1ccc(C#Cc2ccc(CN3CCOCC3)cc2)cc1 (stereo not shown)"
  system.name: "APAE001 (ATCC27853)"
  readout.value: "2 to 16 µg/mL"
